Source: patent US5436229A

target: Bovine trypsin (Bos taurus, UniProt P00760); construct: Bovine trypsin is purchased from Worthington Biochemicals; purchased Worthington Biochemicals, Freehold, N.J; assay: Serine protease inhibition (Kass), trypsin; type: biochemical
Sequence (P00760 24-246): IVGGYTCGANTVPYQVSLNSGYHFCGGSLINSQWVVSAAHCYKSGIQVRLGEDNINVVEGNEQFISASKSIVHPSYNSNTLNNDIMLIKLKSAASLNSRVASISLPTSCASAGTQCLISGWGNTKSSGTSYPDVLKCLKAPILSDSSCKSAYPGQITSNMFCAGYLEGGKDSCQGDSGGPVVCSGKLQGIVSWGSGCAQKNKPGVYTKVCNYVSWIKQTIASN
Non-standard residues stand in square brackets, D forms with d. Residues, ends and D or L forms follow the SMILES beside them. dCha = N[C@H](CC1CCCCC1)C(=O)O
Consider the following compounds; for each one, report its Kass Trypsin.
Give bare numbers, in L/mol × 10^6.

# example entries with known answers
Give the reported Kass Trypsin for this compound. CC(=O)N[C@H](CC1CCCCC1)C(=O)N1CCC[C@H]1C(=O)N[C@H](C=O)CCCNC(=N)N.Cl [Example 72] (Ac-[dCha]-Pro-Arg-aldehyde) 12

State, in one line, measured Kass Trypsin of COCC(=O)N[C@H](Cc1ccccc1)C(=O)N1CCC[C@H]1C(=O)N[C@H](C=O)CCCNC(=N)N.Cl [Example 68] 57

# return recorded Kass Trypsin for input CCCCC(Cc1ccccc1)(NC(=O)OCC)C(=O)N1CCC[C@H]1C(=O)N[C@H](C=O)CCCNC(=N)N (stereo partly drawn) [Example 40] 15

Give a short answer stating reported Kass Trypsin for CCS(=O)(=O)NC(C)(C(=O)N1CCC[C@H]1C(=O)N[C@H](C=O)CCCNC(=N)N)c1ccccc1.Cl (stereo partly drawn) [Example 41] . 42

Give Kass Trypsin for CC(=O)N[C@H](Cc1ccccc1)C(=O)N1CCC[C@H]1C(=O)N[C@H](C=O)CCCNC(=N)N.Cl [Example 67] 14

Below is a list of compounds. For each, state its recorded Kass Trypsin.
1. Cl.Cl.N=C(N)NCCC[C@@H](C=O)NC(=O)[C@@H]1CCCN1C(=O)[C@@]1(Cc2ccccc2)CCCN1.O.O [Example 24]
2. Cl.Cl.N=C(N)NCCC[C@@H](C=O)NC(=O)[C@]1(Cc2ccccc2)CCCN1C(=O)[C@@H]1CCCN1 [Example 25]
3. CCS(=O)(=O)N[C@H](Cc1ccccc1)C(=O)N1CCC[C@@]1(C)C(=O)N[C@H](C=O)CCCNC(=N)N.Cl [Example 28]
4. Cl.N=C(N)NCCC[C@@H](C=O)NC(=O)[C@@H]1CCCN1C(=O)[C@@H](Cc1ccccc1)NS(=O)(=O)c1ccc(F)cc1F [Example 58]

1. 14
2. 43
3. 20
4. 160

====

target: tissue plasminogen activator (t-PA) (Homo sapiens, UniProt P00750); construct: purchased American Diagnostica, Greenwich, Conn; experiment: Serine protease inhibition (Kass), t-PA; format: biochemical
Sequence (P00750 36-562): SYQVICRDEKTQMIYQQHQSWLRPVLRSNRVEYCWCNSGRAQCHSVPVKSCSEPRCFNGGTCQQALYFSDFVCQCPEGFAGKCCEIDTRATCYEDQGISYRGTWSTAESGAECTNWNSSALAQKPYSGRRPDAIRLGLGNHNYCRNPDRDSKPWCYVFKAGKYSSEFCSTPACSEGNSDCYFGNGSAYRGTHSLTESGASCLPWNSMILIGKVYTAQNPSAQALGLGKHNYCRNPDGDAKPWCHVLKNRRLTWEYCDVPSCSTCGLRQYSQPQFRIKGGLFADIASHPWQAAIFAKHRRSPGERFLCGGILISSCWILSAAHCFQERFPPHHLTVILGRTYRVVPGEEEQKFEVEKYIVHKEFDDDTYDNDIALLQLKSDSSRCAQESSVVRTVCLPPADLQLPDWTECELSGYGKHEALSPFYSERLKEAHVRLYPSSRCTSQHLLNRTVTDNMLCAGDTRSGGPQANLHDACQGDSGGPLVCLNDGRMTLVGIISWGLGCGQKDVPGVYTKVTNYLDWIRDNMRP
parameter.measured: Kass t-PA (L/mol × 10^6)
One number for each entry, in L/mol × 10^6.

Enter recorded Kass t-PA with tissue plasminogen activator (t-PA) (Homo sapiens, UniProt P00750) for `Cc1noc(C)c1S(=O)(=O)N[C@H](Cc1ccccc1)C(=O)N1CCC[C@H]1C(=O)N[C@H](C=O)CCCNC(=N)N.Cl` here. 2.7

State Kass t-PA (tissue plasminogen activator (t-PA) (Homo sapiens, UniProt P00750)) of N=C(N)NCCCC(C=O)NC(=O)C1CCCN1C(=O)C1CC2CCCCC2CN1.O=S(=O)(O)O [80 (Step F), D-3-(cis)Piq-Pro-Arg-H.H2 SO4] . 0.5

Please examine the following record next.
Give measured Kass t-PA for `Cl.N=C(N)NCCC[C@@H](C=O)NC(=O)[C@@H]1CCCN1C(=O)[C@@H](Cc1ccccc1)NC(=O)c1cc2ccccc2cn1` (tissue plasminogen activator (t-PA) (Homo sapiens, UniProt P00750)). 0.32
